molecular target: T1, HSP70 (human HSP70; the antigen of the binning, humanization and variant binding assays) (human, UniProt P0DMV8 1-641, limits assumed); test: BLI, anti-human Fc capture, antigen dilution series, 1:1 fit
T1 construct: also called hu HSP70
T1 sequence (P0DMV8 whole entry, change not shown): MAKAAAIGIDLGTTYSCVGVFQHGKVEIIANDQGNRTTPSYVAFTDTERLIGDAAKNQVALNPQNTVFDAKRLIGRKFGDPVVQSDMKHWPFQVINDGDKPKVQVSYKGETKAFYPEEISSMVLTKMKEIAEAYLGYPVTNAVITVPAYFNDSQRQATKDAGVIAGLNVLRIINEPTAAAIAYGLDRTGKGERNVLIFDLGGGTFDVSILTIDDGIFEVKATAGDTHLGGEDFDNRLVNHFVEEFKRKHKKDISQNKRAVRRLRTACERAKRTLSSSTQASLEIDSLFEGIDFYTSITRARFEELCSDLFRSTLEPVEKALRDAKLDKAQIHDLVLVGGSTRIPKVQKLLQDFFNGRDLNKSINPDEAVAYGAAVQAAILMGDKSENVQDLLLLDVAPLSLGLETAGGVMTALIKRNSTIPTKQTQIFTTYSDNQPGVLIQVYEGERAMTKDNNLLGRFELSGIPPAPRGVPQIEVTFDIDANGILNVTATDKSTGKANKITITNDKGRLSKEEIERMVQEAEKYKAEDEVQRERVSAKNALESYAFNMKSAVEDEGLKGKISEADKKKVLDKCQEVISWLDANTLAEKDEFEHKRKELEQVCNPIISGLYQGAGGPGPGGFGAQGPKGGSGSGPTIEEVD
observationType: koff

Answered examples (2):
1) h77A-1.14 (antibody, V domains shown, captured by anti-human Fc) VH: QIQLVQSGAEVKKPGASVKVSCKASGYTFTNYGMNWVRQAPGQGLEWMGWINTYTGEPTYTDDFKGRFTFTTDTSTSTAYMELRSLRSDDTAVYFCARYDHAMDYWGQGTLVTVSS VL: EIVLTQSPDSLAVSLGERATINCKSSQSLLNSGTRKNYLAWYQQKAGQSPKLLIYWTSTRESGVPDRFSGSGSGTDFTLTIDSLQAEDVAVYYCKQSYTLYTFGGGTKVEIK    0.000124 s⁻¹
2) h77A-1.27 (antibody, V domains shown, captured by anti-human Fc) VH: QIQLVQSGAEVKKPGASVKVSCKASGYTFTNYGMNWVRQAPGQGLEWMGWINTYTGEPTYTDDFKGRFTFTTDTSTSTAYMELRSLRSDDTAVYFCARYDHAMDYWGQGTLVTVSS VL: EIVLTQSPDSLTVSLGERATINCKSSQSLLNSGTRKNYLAWYQQKAGQSPKLLIYWTSTRESGVPDRFSGSGSGTDFTLTIDSLQAEDVAVYYCKQSYTLYTFGGGTKVEIK    0.000108 s⁻¹

# per-item lookup of koff; items listed below
1. h77A-1.22 (antibody, V domains shown, captured by anti-human Fc) VH: QIQLVQSGAEVKKPGASVKVSCKASGYTFTNYGMNWVRQAPGQGLEWMGWINTYTGEPTYSDDFKGRFTFTTDTSTSTAYMELRSLRSDDTAVYFCARYDHAMDYWGQGTLVTVSS VL: EIVLTQSPDSLAVSLGERATINCKSSQSLFNSGTRKNYLAWYQQKAGQSPKLLIYWTSTRESGVPDRFSGSGSGTDFTLTIDSLQAEDVAVYYCKQSYTLYTFGGGTKVEIK
2. h77A-1.30 (antibody, V domains shown, captured by anti-human Fc) VH: QIQLVQSGAEVKKPGASVKVSCKASGYTFTNYGMNWVRQAPGQGLEWMGWINTYTGEPTYADDFKGRFTFTTDTSTSTAYMEVRSLRSDDTAVYFCARYDHAMDYWGQGTLVTVSS VL: EIVLTQSPDSLAVSLGERATINCKSSQSLLNSGTRKNYLAWYQQKAGQSPKLIIYWTSTRESGVPDRFSGSGSGTDFTLTIDSLQAEDVAVYYCKQSYTLYTFGGGTKVEIK
3. h77A-1.17 (antibody, V domains shown, captured by anti-human Fc) VH: QIQLVQSGAEVKKPGASVKVSCKASGYTFTKYGMNWVRQAPGQGLEWMGWINTYTGEPTYADDFKGRFTFTTDTSTSTAYMELRSLRSDDTAVYFCARYDHSMDYWGQGTLVTVSS VL: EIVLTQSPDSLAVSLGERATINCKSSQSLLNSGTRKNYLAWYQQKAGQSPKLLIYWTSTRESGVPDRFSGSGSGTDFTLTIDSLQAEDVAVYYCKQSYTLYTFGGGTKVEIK

1. 7.64e-05 s⁻¹
2. 0.000109 s⁻¹
3. 9.24e-05 s⁻¹
